Could you please report measured EC50 for the items listed next?
- tgt: Sulfonylurea receptor 2, Kir6.2 (Homo sapiens, UniProt O60706+Q14654)
- Sequence (Q14654 whole entry): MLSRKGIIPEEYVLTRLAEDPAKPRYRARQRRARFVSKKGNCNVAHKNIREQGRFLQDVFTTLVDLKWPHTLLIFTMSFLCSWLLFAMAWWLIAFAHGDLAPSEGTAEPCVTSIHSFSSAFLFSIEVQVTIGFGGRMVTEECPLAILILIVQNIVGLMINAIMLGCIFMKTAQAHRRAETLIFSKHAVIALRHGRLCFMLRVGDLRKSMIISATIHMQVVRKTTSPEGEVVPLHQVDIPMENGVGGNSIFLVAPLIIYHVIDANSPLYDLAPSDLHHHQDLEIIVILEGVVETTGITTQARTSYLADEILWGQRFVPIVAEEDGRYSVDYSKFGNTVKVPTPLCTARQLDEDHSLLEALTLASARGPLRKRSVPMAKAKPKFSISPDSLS
- Sequence (O60706 whole entry): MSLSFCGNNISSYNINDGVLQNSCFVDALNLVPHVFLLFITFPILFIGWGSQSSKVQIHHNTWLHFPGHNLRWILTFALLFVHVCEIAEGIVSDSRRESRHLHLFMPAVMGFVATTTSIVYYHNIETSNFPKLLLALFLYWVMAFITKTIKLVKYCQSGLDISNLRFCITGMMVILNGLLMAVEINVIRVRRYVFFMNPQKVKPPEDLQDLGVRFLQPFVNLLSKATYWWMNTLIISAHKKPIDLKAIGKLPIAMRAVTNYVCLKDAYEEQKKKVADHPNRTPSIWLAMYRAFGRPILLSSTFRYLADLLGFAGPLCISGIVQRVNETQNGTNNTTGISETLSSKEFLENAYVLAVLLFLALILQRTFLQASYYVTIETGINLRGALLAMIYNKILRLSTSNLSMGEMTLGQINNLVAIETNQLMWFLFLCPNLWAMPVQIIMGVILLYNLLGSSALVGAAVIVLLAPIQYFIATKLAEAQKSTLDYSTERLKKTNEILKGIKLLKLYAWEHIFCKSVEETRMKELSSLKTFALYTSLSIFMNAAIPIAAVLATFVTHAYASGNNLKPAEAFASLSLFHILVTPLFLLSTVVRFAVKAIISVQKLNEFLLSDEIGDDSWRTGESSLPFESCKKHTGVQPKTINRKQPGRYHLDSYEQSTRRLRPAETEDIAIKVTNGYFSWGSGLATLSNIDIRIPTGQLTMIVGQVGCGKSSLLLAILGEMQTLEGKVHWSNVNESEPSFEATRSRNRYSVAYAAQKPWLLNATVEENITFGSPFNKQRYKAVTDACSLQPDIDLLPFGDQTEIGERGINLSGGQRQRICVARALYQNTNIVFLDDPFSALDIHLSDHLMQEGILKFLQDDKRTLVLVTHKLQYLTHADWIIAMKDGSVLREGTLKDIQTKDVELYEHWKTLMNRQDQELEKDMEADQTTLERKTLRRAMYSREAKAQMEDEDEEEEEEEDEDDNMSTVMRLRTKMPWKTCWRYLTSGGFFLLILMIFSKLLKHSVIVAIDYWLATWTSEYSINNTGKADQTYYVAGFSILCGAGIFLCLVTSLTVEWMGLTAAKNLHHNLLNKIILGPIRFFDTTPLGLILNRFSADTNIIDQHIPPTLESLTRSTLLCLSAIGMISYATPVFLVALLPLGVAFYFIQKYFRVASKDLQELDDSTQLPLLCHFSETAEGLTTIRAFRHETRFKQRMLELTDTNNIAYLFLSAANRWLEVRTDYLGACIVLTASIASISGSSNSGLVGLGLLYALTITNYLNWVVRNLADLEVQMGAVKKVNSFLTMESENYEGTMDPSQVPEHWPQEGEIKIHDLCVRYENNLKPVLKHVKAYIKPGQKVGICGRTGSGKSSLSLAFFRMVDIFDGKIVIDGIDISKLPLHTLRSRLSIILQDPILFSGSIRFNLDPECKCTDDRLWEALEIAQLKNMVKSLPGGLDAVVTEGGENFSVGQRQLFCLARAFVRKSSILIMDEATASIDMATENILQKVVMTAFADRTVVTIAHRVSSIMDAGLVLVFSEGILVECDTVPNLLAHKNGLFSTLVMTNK
- test-protocol: In vitro ATP-sensitive potassium channel (KATP) activity in cells expressing human KATP channels Kir6.2 and sulfonylurea receptor 2B

-- ask EC50 lookup needed for O=C(NC(NC(=S)Nc1cccnc1)C(Cl)(Cl)Cl)c1ccc(Cl)cc1 (stereo unspecified) , thanks.
-- reply 0.794 µM

-- ask Need EC50, item CCC(CC)(CCC#N)C(NC(=O)c1ccc(Cl)cc1)NC(=NC#N)Nc1cccnc1 (stereo unspecified)
-- reply 5.01 µM

-- ask # query: EC50 of entry Cc1ccc(C(=O)NC(/N=C(\NC#N)Nc2cccnc2)C(C)(Cl)Cl)cc1 (stereo unspecified)
-- reply 2.51 µM

-- ask Entry `CC(Cl)(Cl)[C@H](NC(=O)c1ccc(Cl)cc1)N/C(=N/c1cccnc1)NC#N` has what EC50?
-- reply 10 µM

-- ask Any idea what its EC50 is? The molecule is CC(Cl)(Cl)C(NC(=O)c1cccc(F)c1)N/C(=N/c1cccnc1)NC#N (stereo unspecified)
-- reply 3.98 µM

-- ask # lookup: EC50 of CC(Cl)(Cl)C(NC(=O)c1ccc(Br)cc1)N/C(=N/c1cccnc1)NC#N (stereo unspecified)
-- reply 10 µM

-- ask Returns the measured EC50 for the input molecule. Input: CC(C)(C)C(NC(=O)c1ccc(Cl)cc1)N/C(=C/[N+](=O)[O-])Nc1cccnc1 (stereo unspecified)
-- reply > 100 µM

-- ask Bench note: what EC50 did CC(C)(C)C(NC(=O)c1ccc(Cl)cc1)N/C(=N/c1cccnc1)NS(N)(=O)=O (stereo unspecified) show?
-- reply > 100 µM

-- ask Consider the molecule shown here: CCCCC(C)(C)C(NC(=O)c1ccc(Cl)cc1)N/C(=N/c1cccnc1)NC#N (stereo unspecified) What is its recorded EC50?
-- reply > 100 µM

-- ask Reported EC50, molecule C=CC(C)(C)CC(NC(=O)c1ccc(Cl)cc1)N/C(=N/c1cccnc1)NC#N (stereo unspecified) : ____
-- reply 10 µM

-- ask # query: EC50 of entry Cc1cccc(C(=O)NC(/N=C(\NC#N)Nc2cccnc2)C(C)(Cl)Cl)c1 (stereo unspecified)
-- reply 5.01 µM
